List of OD450 at 0.1829 nM values.
targetUnderTest: T1, LAG3 Protein, Human, Recombinant (His Tag) (Sino Biological Catalog No. 16498-H08H) (human, UniProt P18627 23-450)
T1 construct: Bought protein; also called hLAG3-His; LAG3-His; not shown: His tag
T1 sequence (looked up): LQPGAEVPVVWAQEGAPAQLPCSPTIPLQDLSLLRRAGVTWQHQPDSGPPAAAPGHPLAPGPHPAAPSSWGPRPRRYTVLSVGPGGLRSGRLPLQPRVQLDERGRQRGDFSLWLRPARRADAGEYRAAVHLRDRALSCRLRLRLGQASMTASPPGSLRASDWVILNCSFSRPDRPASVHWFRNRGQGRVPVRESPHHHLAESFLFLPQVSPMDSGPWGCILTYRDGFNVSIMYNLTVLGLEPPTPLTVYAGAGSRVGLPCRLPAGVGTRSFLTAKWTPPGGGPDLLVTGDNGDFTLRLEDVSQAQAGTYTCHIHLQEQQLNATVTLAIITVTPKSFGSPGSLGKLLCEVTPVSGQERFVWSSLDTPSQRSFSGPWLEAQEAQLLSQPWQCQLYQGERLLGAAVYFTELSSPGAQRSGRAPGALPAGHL
measurementDescription: ELISA, coated hLAG3-His

binder | OD450 at 0.1829 nM
sdAb No. 25 (VHH, Fc of the tested form not described; also called sdAb 25; sdAb #25; not shown: Fc part implied by anti-human Fc capture and anti-human IgG Fc detection) VHH: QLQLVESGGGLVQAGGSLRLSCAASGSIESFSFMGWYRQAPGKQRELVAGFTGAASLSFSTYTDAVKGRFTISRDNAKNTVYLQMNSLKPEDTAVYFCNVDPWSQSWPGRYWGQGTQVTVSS | 0.042
sdAb No. 25-B6 (VHH, Humanized sdAb No. 25; not shown: Fc part implied by anti-human IgG1 Fc detection) VHH: QLQLVESGGGLVKPGGSLRLSCAASGSIESFSFMGWYRQAPGKQREWVAGFTGAASLSFSTYTDAVKGRFTISRDNAKNSVYLQMNSLRAEDTAVYYCNVDPWSQSWPGRYWGQGTTVTVSS | 0.039
sdAb No. 25-B7 (VHH, Humanized sdAb No. 25; not shown: Fc part implied by anti-human IgG Fc detection) VHH: QLQLVESGGGLVKPGGSLRLSCAASGSIESFSFMGWYRQAPGKQRELVAGFTGAASLSFSTYTDAVKGRFTISRDNAKNSVYLQMNSLRAEDTAVYFCNVDPWSQSWPGRYWGQGTTVTVSS | 0.057
sdAb No. 25-B5 (VHH, Humanized sdAb No. 25; not shown: Fc part implied by anti-human IgG1 Fc detection) VHH: QVQLVESGGGLVKPGGSLRLSCAASGSIESFSFMGWYRQAPGKQREWVAGFTGAASLSFSTYTDAVKGRFTISRDNAKNSLYLQMNSLRAEDTAVYYCNVDPWSQSWPGRYWGQGTTVTVSS | 0.04
sdAb No. 27 (VHH, Fc of the tested form not described; also called sdAb 27; not shown: Fc part implied by anti-human Fc capture and anti-human IgG Fc detection) VHH: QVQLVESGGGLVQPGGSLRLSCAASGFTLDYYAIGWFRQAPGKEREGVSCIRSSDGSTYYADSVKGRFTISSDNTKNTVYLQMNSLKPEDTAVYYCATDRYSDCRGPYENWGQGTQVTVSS | 0.042
sdAb No. 27-H1B3 (VHH, Humanized sdAb No. 27-H1; not shown: Fc part implied by anti-human IgG Fc detection) VHH: QVQLVESGGGLVQPGGSLRLSCAASGFTLDYYAIGWFRQAPGKEREGVSCIRSSDASTYYADSVKGRFTISSDNSKNTVYLQMNSLRAEDTAVYYCATDRYSDCRGPYENWGQGTMVTVSS | 0.057
